# Test system: Inhibin beta A chain (activin A)
# Experiment: small molecules binding activin A – biochemical, small-molecule microarray, 635 nm fluorescence scan, primary screen (AID 1107);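 also: mouse activin A protein probed at 4.33 µg/mL on printed slides; score merges bound-protein fluorescence near 667 nm with spot signal-to-noise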
# Cond: INHBA, higher = more signal
Outcome measure: composite z-score
Give your answer as a number; write no unit.

{"Compound": "COc1ccc([Si](C)(C)[C@@H]2[C@@H](CC(=O)N3Cc4ccccc4C[C@H]3CO)O[C@]3(C(=O)N(Cc4cccc(N5CCC5=O)c4)c4ccccc43)[C@H]2C)cc1", "System": "Inhibin beta A chain (activin A)", "composite z-score": 0.886}
{"Compound": "CCCC[C@@H]1C[C@H]1[C@@H](NC(=O)c1cccnc1)c1ccc(Cl)cc1", "System": "Inhibin beta A chain (activin A)", "composite z-score": 0.0159}
{"Compound": "CC1CC/C=C\\[C@H]2OC34C=CCN(Cn5nnc6ccccc65)C(=O)[C@H]3N(CCCCCO)C(=O)[C@@H]4C2C(=O)O1 (stereo not given in full)", "System": "Inhibin beta A chain (activin A)", "composite z-score": -0.318}
{"Compound": "Cc1ccc([C@H]2C(C(=O)O)=CCN2S(=O)(=O)c2ccc(C)cc2)cc1", "System": "Inhibin beta A chain (activin A)", "composite z-score": 1.03}

Okay, now this compound:
# input Dear colleague, I am looking for the recorded composite z-score of the following compound: COc1cc2c(cc1OC)CN(C(=O)[C@H]1[C@@H]3C(=O)O[C@@H](c4ccccc4)[C@@H](c4ccccc4)N3[C@@H](c3ccccc3OCCO)[C@]13C(=O)Nc1ccc(C#CCCO)cc13)CC2
# output 0.931

----------
Recorded z-score for the following compounds
# Experiment: JC-1 mitochondrial signal, unstimulated HepG2 cells – cell-based, JC-1 fluorescence, 24 h, 100 nL compound, profiling panel (AID 1167); also: test concentration not given here
# Cond: HepG2 mitochondrial potential, higher = more signal
When you answer, write just the number.

{"Compound": "COC(=O)[C@]1(Cc2ccccc2)N=C(c2ccc(OCCCO)cc2)O[C@@H]1c1ccccc1N=[N+]=[N-]", "z-score": -2.75}
{"Compound": "Cc1ccc(S[C@]2(C(=O)O)CC(=O)N(Cc3ccccc3C(F)(F)F)[C@@H]2c2ccc(CO)cc2I)cc1", "z-score": -1.06}
{"Compound": "COC(=O)c1c2oc(c1C(=O)OC)C(=O)N[C@@H](C(C)C)Cn1cc(nn1)C1(CCCCC1)NC(=O)N[C@H](CO)CC2", "z-score": 1.62}

# input Endpoint output: z-score of COC(=O)C(CC#Cc1ccc2c(c1)[C@]1(C(=O)N2)[C@H](c2ccccc2OCCO)N2[C@H](c3ccccc3)[C@H](c3ccccc3)OC(=O)[C@H]2[C@@H]1C(N)=O)C(=O)OC . Value?
# output -2.46

# input // query z-score value for entry CC1CC/C=C\[C@H]2OC34C=CCN(c5ccc6ccccc6c5)C(=O)[C@H]3N(CCO)C(=O)[C@@H]4C2C(=O)O1 (some centres undefined)
# output -0.438

# input Entry CC(=O)NCCCC[C@@H]1NC(=O)[C@H]2C[C@@H](C(=O)O)[C@@H](c3ccc(O)cc3)N2C1=O : reported z-score = ?
# output 0.237

# input Given the entry C=C(CCCC)C(=O)CC[C@@H](OC(C)=O)c1ccc(CO)o1 , report its measured z-score.
# output -0.885

# input Dear colleague, I am looking for the recorded z-score of the following compound: COC(=O)[C@@]1(Cc2ccc(F)cc2)[C@H]2c3cc(C(=O)N(C)C)n(Cc4cc(C)n(C)n4)c3C[C@H]2CN1C(=O)c1ccccc1
# output 0.635

----------
# Test system: wheat germ agglutinin (Triticum aestivum), Alexa647-labelled
# Experiment: Alexa647-WGA lectin binding to printed small molecules – biochemical, small-molecule microarray, 635/667 nm fluorescence, artefact control for SMM control-protein annotation, profiling panel (AID 1140);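 also: score merges 667 nm feature emission with signal to noise over triplicate slides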
# Cond: WGA-A647 binding, 635 nm fluorescence, higher = more signal
Below, each of the compounds is paired with its reported composite z-score value.

Solved entries:
{"Compound": "CCOC(=O)C1=CC[C@@H](c2ccc(C(F)(F)F)cc2)N(S(=O)(=O)c2ccc(C)cc2)[C@H]1c1ccccc1", "composite z-score": 1.22}
{"Compound": "C=CCNC(=O)[C@H]1[C@@H]2C(=O)O[C@@H](c3ccccc3)[C@@H](c3ccccc3)N2[C@@H](c2ccc(OCCO)cc2)[C@]12C(=O)Nc1ccc(C#CCC(C(=O)OC)C(=O)OC)cc12", "composite z-score": 0.887}
{"Compound": "NC(=O)[C@@]1(Cc2ccccc2)N=C(c2ccc(OCCCO)cc2)O[C@H]1c1ccccc1", "composite z-score": 1.3}
{"Compound": "CC(C)C(=C=CC[C@H](O)c1ccc(CO)o1)CCO", "composite z-score": 0.383}
{"Compound": "COC(=O)[C@@]1(Cc2ccccc2)[C@H]2c3cc(C(=O)N(C)C)n(Cc4ccc(OC)c(OC)c4)c3C[C@H]2CN1C(=O)c1ccccc1", "composite z-score": 0.995}

# input Which composite z-score is listed for O=C(O)[C@H]1C[C@H]2C(=O)N3CCC[C@H]3C(=O)N2[C@H]1c1ccc(O)cc1 ?
# output -0.842

# input Using the record for O=C1C2C=CC(C(O)c3ccc(F)cc3)N(Nc3ccc([N+](=O)[O-])cc3)C2C(=O)N1c1ccccc1 (centres undefined) , report its composite z-score.
# output 1.09

# input Entry COC(=O)[C@@]1(Cc2ccccc2)[C@H]2c3cc(C(=O)N4CCCC4)n(Cc4ccc(O)c(OC)c4)c3C[C@H]2CN1C(=O)c1ccccc1 has what composite z-score?
# output 0.504

# input Find the recorded composite z-score belonging to O=C1C2C=CC(C(O)c3ccc4c(c3)OCO4)N(Nc3ccc([N+](=O)[O-])cc3)C2C(=O)N1c1ccccc1 (centres undefined) and report it.
# output 0.0897

----------
# Test system: PRMT1 (protein arginine N-methyltransferase 1)
# Experiment: small molecules binding arginine methyltransferase PRMT1 – biochemical, small-molecule microarray, 635 nm fluorescence, primary screen (AID 1088);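 also: binding of Prmt1 protein to compounds spotted on small-molecule microarray slides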
# Cond: higher = more signal
Outcome measure: composite z-score
Lab note: jot down the number only; don't add units.

{"Compound structure": "O=C(NCc1ccccc1)[C@@H]1c2ccccc2C(=O)N(C2Cc3ccccc3C2)[C@H]1c1ccc(CO)cc1", "composite z-score": 1.56}
{"Compound structure": "CC(C)NC(=O)[C@@H]1c2ccccc2C(=O)N(C(C)C)[C@H]1c1ccc(CO)cc1", "composite z-score": 1.44}

Let us move to another entry and its composite z-score.
# input Using the record for O=C1[C@@]23C=C(Br)[C@H](C[C@@H]2COC3)[C@]12CO2 , report its composite z-score.
# output -1.63

----------
A collection of compounds and their measured z-score
# Experiment: resazurin metabolic signal in HepG2 cells – cell-based, resazurin fluorescence, 24 h, PK04 Diversity Set, profiling panel (AID 1172); also: test concentration not given here
# Cond: HepG2 viability, higher = more signal

{"Compound": "CCOc1ccc(N2C(=O)CSC2c2cccc([N+](=O)[O-])c2)cc1 (centres undefined)", "Result": 0.296}

# input Quick one: z-score of C=CC[C@]1(C(N)=O)N=C(c2ccc(OCCCO)cc2)O[C@H]1c1ccccc1 ?
# output -0.095

# input z-score for CCOC(=O)[C@H]1C/C=C/C[C@H](C(=O)OCC)C(=O)O[C@H]2[C@@H](OC)O[C@H](CO)[C@@H](OC(=O)c3ccc(Br)cc3)[C@@H]2OC1=O ?
# output -0.349

# input Item under review: COc1ccc(NN2C(C(O)c3ccc(N(C)C)cc3)C=CC3C(=O)N(C4CCCCC4)C(=O)C32)cc1 (centres undefined) . Reported z-score?
# output 0.252

----------
# System: Fibroblast growth factor 2 (Homo sapiens)
# Experiment: basic fibroblast growth factor binding to printed compounds – biochemical, small-molecule microarray, 635/667 nm fluorescence, primary screen (AID 1133)
# Cond: FGF2, fluorescence 635/667, higher = more signal
Outcome measure: composite z-score
Answer as a number with no unit attached.

Examples from the recorded data:
{"Molecule": "COCCOC(=O)N1C(=O)[C@@]2(c3cc(C#CC4=CCCCC4)ccc31)[C@H](C(N)=O)[C@H]1C(=O)O[C@H](c3ccccc3)[C@H](c3ccccc3)N1[C@@H]2c1ccc(O)cc1", "composite z-score": 0.58}
{"Molecule": "O=C1C[C@@](C(=O)NCc2ccccc2)(c2ccc([N+](=O)[O-])cc2)[C@@H](c2ccc(CO)cc2)N1CC12CC3CC(CC(C3)C1)C2", "composite z-score": 1.46}
{"Molecule": "O=C1C2C=CC(C(O)c3cc(C(F)(F)F)cc(C(F)(F)F)c3)N(Nc3ccccc3)C2C(=O)N1c1ccccc1 (stereo not given)", "composite z-score": -0.601}
{"Molecule": "CC(=O)NCCCC[C@@H]1NC(=O)[C@H]2C[C@@H](C(=O)O)[C@@H](c3ccc(O)cc3)N2C1=O", "composite z-score": 1.67}

# input Entry CCCCCCc1nc(-c2ccc(-c3ccc(Cl)c(Cl)c3)o2)c(C)c2c1[Si](C(C)C)(C(C)C)OC2 : reported composite z-score = ?
# output -0.773
